- tested system: GLP-1R (Homo sapiens)
- Construct: host or cells: GLP-1R CRE-bla CHO-K1 cells
- Sequence (P43220 24-463): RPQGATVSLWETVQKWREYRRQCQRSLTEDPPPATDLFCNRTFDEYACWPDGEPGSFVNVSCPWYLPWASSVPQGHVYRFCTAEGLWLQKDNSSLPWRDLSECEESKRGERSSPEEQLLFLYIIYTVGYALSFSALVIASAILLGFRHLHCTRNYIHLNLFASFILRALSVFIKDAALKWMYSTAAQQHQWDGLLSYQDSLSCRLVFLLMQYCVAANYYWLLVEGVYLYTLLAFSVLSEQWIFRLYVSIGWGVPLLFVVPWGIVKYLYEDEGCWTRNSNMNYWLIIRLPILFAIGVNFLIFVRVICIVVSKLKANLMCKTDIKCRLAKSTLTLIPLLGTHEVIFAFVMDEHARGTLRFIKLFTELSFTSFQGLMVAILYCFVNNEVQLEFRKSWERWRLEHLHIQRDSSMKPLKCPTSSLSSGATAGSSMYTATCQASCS
- Sequence (P01275 100-127 partner limits assumed): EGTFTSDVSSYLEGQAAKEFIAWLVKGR
- assay remarks: EC20 GLP-1(9-36) PAM cAMP assay: dose response of compound in the presence of fixed concentration of GLP-1(9-36)
- Assay type: cell-based
- run parameters: dose response of compound in presence of fixed concentration of GLP-1(9-36), GLP-1R CRE-bla CHO-K1 cells, read-out: EC20 GLP-1(9-36) PAM EC50
pEC50: −log10 of the molar value.
pEC50 overview

{"compound structure": "CCCCCCCOc1ccc(-c2cnc(-c3ccc(C[C@H](NC(=O)c4ccc(C(C)(C)C)s4)C(=O)N4CCC[C@H]4C(=O)NCCC(=O)O)cc3)nc2)cc1", "tested system": "GLP-1R (Homo sapiens)", "pEC50": "> 6.10"}

Data point: CC[C@H]1CC[C@H](c2ccc(-c3cnc(-c4ccc(C[C@H](NC(=O)c5cnn(C(C)(C)C)c5)C(=O)N5CC(C(=O)O)C5)cc4)nc3)cc2)CC1 ; pEC50 = > 6.10

Per the record, CCCCCCCOc1ccc(-c2cnc(-c3ccc(C[C@H](NC(=O)c4ccc(C(C)(C)C)s4)C(=O)N4C[C@H](O)C[C@H]4C(=O)O)cc3)nc2)cc1 has pEC50 of > 6.10
